- protocol-details: Solubility assay (kinetic solubility, PBS pH 7)
- Format: physicochemical
- study-conditions: pH 7, aqueous buffer, kinetic from dmso stock, pH 7, PBS; read-out: Solubility
Positions of bridges follow the written chain, without caps; N, C: chain ends. Non-standard residues stand in square brackets, D forms with d. Residues, ends and D or L forms follow the SMILES beside them. Lys(N3) = [N-]=[N+]=NCCCC[C@H](N)C(=O)O; R8 = C=CCCCCCC[C@@](C)(N)C(=O)O; Cba = N[C@@H](CC1CCC1)C(=O)O; S5 = C=CCCC[C@](C)(N)C(=O)O; βAla = NCCC(=O)O
Entries and their log10(solubility kinetic)
Short version: log10 scale, solubility kinetic, µM.

| molecule | log10(solubility kinetic) |
| --- | --- |
| CC(=O)N[C@@H](CCCCN=[N+]=[N-])C(=O)NCCC(=O)N[C@@H](CC(C)C)C(=O)N[C@H](C(=O)N[C@@H](CCC(=O)O)C(=O)N[C@]1(C)CCCCCCC=CCCC[C@@](C)(C(=O)N[C@@H](CO)C(=O)N[C@@H](C)C(=O)N[C@@H](C)C(N)=O)NC(=O)[C@H](CC2CCC2)NC(=O)[C@H](CCC(N)=O)NC(=O)[C@H](C)NC(=O)[C@H](Cc2c[nH]c3ccccc23)NC(=O)[C@H](Cc2ccc(O)cc2)NC(=O)[C@H](CCC(=O)O)NC1=O)[C@@H](C)O | 2.18 |
| CC(=O)N[C@@H](CCCCN=[N+]=[N-])C(=O)NCCC(=O)N[C@@H](CC(C)C)C(=O)NC(C)(C)C(=O)N[C@@H](Cc1ccccc1)C(=O)N[C@]1(C)CCCCCCC=CCCC[C@@](C)(C(=O)N[C@@H](CO)C(=O)N[C@@H](C)C(=O)N[C@@H](C)C(N)=O)NC(=O)[C@H](CC2CCC2)NC(=O)[C@H](CCC(N)=O)NC(=O)[C@H](C)NC(=O)[C@H](Cc2c[nH]c3ccccc23)NC(=O)[C@H](Cc2ccc(O)cc2)NC(=O)[C@H](CCC(=O)O)NC1=O | 1.79 |
| CC(=O)N[C@H](C)C(=O)N[C@H](C)C(=O)N[C@H](C)C(=O)N[C@H](C)C(=O)N[C@@H](CC(C)C)C(=O)N[C@H](C(=O)N[C@@H](Cc1ccccc1)C(=O)N[C@]1(C)CCCCCCC=CCCC[C@@](C)(C(=O)N[C@@H](CO)C(=O)N[C@@H](C)C(=O)N[C@@H](C)C(N)=O)NC(=O)[C@H](CC2CCC2)NC(=O)[C@H](CCC(N)=O)NC(=O)[C@H](C)NC(=O)[C@H](Cc2c[nH]c3ccccc23)NC(=O)[C@H](Cc2ccc(O)cc2)NC(=O)[C@H](CCC(=O)O)NC1=O)[C@@H](C)O | 1.88 |
| CC(=O)N[C@@H](CCCCN=[N+]=[N-])C(=O)NCCC(=O)N[C@@H](CC(C)C)C(=O)N[C@H](C(=O)N[C@@H](Cc1ccccc1)C(=O)N[C@]1(C)CCCCCCC=CCCC[C@@](C)(C(N)=O)NC(=O)[C@H](CC2CCC2)NC(=O)[C@H](CCC(N)=O)NC(=O)[C@H](C)NC(=O)[C@H](Cc2c[nH]c3ccccc23)NC(=O)[C@H](Cc2ccc(O)cc2)NC(=O)[C@H](CCC(=O)O)NC1=O)[C@@H](C)O [MP-326] (Ac-[Lys(N3)][βAla]LTF[R8]EYWAQ[Cba][S5]-NH2; staple 6-13) | 0.48 |

Let us examine a further case.
// Input: CC(=O)N[C@@H](CCCCN=[N+]=[N-])C(=O)NCCC(=O)N[C@@H](CC(C)C)C(=O)N[C@H](C(=O)N[C@@H](Cc1ccccc1)C(=O)N[C@]1(C)CCCCCCC=CCCC[C@@](C)(C(=O)N[C@@H](CO)C(=O)N(C)[C@@H](C)C(=O)N[C@@H](C)C(N)=O)NC(=O)[C@H](CC2CCC2)NC(=O)[C@H](CCC(N)=O)NC(=O)[C@H](C)NC(=O)[C@H](Cc2c[nH]c3ccccc23)NC(=O)[C@H](Cc2ccc(O)cc2)NC(=O)[C@H](CCC(=O)O)NC1=O)[C@@H](C)O . Output its log10(solubility kinetic) only.
1.52

Measured values drawn from paper PMC10786919 for this set.
